System: E. coli (ATCC 10798)
Assay: MIC and MBC measurement with E. coli (ATCC 10798)
Type: cell-based, Escherichia coli
Settings: Table 9; Escherichia coli (ATCC 10798)
Method: General: Microorganisms. Reference strains were purchased from the American Type Culture Collection (Rockville, Md.) or Bactrol disks from Difeo Laboratories (Detroit, Mich.). […] Aliquots of 1 mL of the suspension were added to test tubes containing 1 mL TSB and incrementally varied concentrations of cholic acid derivatives and/or erythromycin or novobiocin. […] Sample turbidity was determined by measuring absorption at 760 nm (HP 8453 UV-Visible Chemstation, Hewlett Packard). […]
measured_quantity: log10 MBC (log10 of the value in µg/mL)
Heads up, the numbers here are log10 of MBC in µg/mL units.

Examples with their reported log10 MBC follow.
CCCOCCC[C@@H](C)[C@H]1CC[C@H]2[C@@H]3[C@H](OCCCN)C[C@@H]4C[C@H](OCCCN)CC[C@]4(C)[C@H]3C[C@H](OCCCN)[C@]12C ... 1.23
C[C@H](CCCO)[C@H]1CC[C@H]2[C@@H]3[C@H](OCCCN)C[C@@H]4C[C@H](OCCCN)CC[C@]4(C)[C@H]3C[C@H](OCCCN)[C@]12C ... 1.78
CCCCCOCCC[C@@H](C)[C@H]1CC[C@H]2[C@@H]3[C@H](OCCCN)C[C@@H]4C[C@H](OCCCN)CC[C@]4(C)[C@H]3C[C@H](OCCCN)[C@]12C ... 0.70

Please provide the recorded log10 MBC for COCCC[C@@H](C)[C@H]1CC[C@H]2[C@@H]3[C@H](OCCCN)C[C@@H]4C[C@H](OCCCN)CC[C@]4(C)[C@H]3C[C@H](OCCCN)[C@]12C , tested on E. coli (ATCC 10798). 1.52

# get_value(readout= log10 MBC, system= E. coli (ATCC 10798)) for CCCCCCCCOCCC[C@@H](C)[C@H]1CC[C@H]2[C@@H]3[C@H](OCCCN)C[C@@H]4C[C@H](OCCCN)CC[C@]4(C)[C@H]3C[C@H](OCCCN)[C@]12C 1.00

###

The following compounds are shown together with reported concentration required to inhibit bacterial growth with antibiotic values.
Tested on: Pseudomonas aeruginosa (ATCC 27853)
Test: Sensitization to erythromycin, Pseudomonas aeruginosa (ATCC 27853)
Format: cell-based
Details: Table 11; Pseudomonas aeruginosa ATCC 27853; erythromycin (by order) at 0.5, 1.0 or 3.0 μg/mL
Description: Alternatively, “fractional inhibitory concentration (FIC)” is also useful for determination of synergy between the compounds of the invention, or the compounds in combination with known antibiotics. […] The FIC is calculated by looking at the impact of one antibiotic on the MIC of the other and vice versa. […] As used herein, FIC can be determined as follows: […]
Please state the figure in µg/mL; there is no need to write the unit.

C[C@]12CC[C@@H](OCCCN)C[C@H]1C[C@@H](OCCCN)[C@@H]1[C@@H]2C[C@H](OCCCN)[C@]2(C)[C@@H](O)CC[C@@H]12 ... 16
C[C@H](CCCN(C)Cc1ccccc1)[C@H]1CC[C@H]2[C@@H]3[C@H](OCCCNC(=N)N)C[C@@H]4C[C@H](OCCCNC(=N)N)CC[C@]4(C)[C@H]3C[C@H](OCCCNC(=N)N)[C@]12C ... 2.3

Next, consider the following compound.
Hello, I am looking for reported concentration required to inhibit bacterial growth with antibiotic with Pseudomonas aeruginosa (ATCC 27853) for C[C@H](CCCO)[C@H]1CC[C@H]2[C@@H]3[C@H](OCCCN)C[C@@H]4C[C@H](OCCCN)CC[C@]4(C)[C@H]3C[C@H](OCCCN)[C@]12C . Could you help? 2.1
